What fold less potent than lobeline in inhibiting [3H]nicotine binding (α4β2*) was measured for each of the following?
- SYSTEM_NAME: α4β2* nAChRs (Rattus norvegicus, UniProt P09483+P12390)
- Sequence (P09483 31-630): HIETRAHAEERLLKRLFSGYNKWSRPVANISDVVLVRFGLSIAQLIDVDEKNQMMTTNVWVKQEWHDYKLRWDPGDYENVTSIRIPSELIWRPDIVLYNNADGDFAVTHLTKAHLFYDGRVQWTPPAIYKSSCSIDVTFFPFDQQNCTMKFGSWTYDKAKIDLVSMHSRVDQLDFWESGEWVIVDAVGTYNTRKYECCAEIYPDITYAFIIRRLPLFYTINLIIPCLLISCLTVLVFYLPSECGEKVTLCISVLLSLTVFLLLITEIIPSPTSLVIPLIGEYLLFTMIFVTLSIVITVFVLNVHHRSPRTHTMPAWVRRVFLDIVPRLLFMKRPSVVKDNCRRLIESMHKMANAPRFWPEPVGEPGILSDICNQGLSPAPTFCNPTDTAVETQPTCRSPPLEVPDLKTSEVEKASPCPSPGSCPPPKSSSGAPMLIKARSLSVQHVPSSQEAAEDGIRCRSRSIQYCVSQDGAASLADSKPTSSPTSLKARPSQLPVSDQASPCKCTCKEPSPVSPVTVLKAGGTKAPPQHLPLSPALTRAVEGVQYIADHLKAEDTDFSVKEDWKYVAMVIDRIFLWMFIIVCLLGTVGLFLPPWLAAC
- Sequence (P12390 25-500): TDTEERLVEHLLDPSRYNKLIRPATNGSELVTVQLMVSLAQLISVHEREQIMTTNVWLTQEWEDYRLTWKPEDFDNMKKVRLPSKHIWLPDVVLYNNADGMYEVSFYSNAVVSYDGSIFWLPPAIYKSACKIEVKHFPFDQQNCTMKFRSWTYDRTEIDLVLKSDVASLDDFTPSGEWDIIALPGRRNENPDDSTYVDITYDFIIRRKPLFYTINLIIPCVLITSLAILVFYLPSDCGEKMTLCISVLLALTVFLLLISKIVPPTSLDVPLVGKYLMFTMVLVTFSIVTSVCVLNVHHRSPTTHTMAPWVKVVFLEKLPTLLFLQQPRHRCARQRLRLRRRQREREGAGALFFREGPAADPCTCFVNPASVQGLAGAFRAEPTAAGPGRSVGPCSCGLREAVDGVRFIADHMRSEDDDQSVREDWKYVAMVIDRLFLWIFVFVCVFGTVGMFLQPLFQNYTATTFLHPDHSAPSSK
- TEST_SUMMARY: [3H]nicotine
- Type: binding

// worked examples, fold less potent than lobeline in inhibiting [3H]nicotine binding (α4β2*) included
CN1[C@@H](CC(=O)c2ccccc2)CCC[C@H]1C[C@H](OC(=O)c1cccs1)c1ccccc1.Cl
215–4800 fold
CC(C)C(=O)OC(C[C@@H]1CCCC(CC(=O)c2ccccc2)N1C)c1ccccc1.Cl (stereo in doubt)
15 to 125 fold
CCC(=O)OC(C[C@@H]1CCCC(CC(=O)c2ccccc2)N1C)c1ccccc1.Cl (stereo in doubt)
15 to 125 fold

Dear colleague, could you send me fold less potent than lobeline in inhibiting [3H]nicotine binding (α4β2*) for each of the items below? Thanks.
1. CC(=O)OC(C[C@@H]1CCCC(CC(=O)c2ccccc2)N1C)c1ccccc1.Cl (stereo in doubt)
2. CN1C(CC(=O)c2ccccc2)CCC[C@H]1CC(OC(=O)c1ccccc1)c1ccccc1.Cl (stereo in doubt)
3. COc1ccc(C(=O)O[C@@H](C[C@@H]2CCC[C@H](CC(=O)c3ccccc3)N2C)c2ccccc2)cc1.Cl

A.
15 to 125 fold
215–4800 fold
215–4800 fold

Notebook: CCCC(=O)OC(C[C@@H]1CCCC(CC(=O)c2ccccc2)N1C)c1ccccc1.Cl (stereo in doubt) , fold less potent than lobeline in inhibiting [3H]nicotine binding (α4β2*) read as 15 to 125 fold
